System: loperamide-induced retching
Experiment: Antiemetic effects: loperamide-induced retching in ferrets
Format: in vivo
Settings: ferrets; p.o. (−2 h) over s.c. (−1 h)
propertyMeasured: Ratio p.o./s.c. of ED50 for blockade of retching

compound	operatorSymbol	reported
C[C@@H](O[C@H]1OCCN(Cc2n[nH]c(=O)[nH]2)[C@H]1c1ccc(F)cc1)c1cc(C(F)(F)F)cc(C(F)(F)F)c1 [Aprepitant/MK-869, Aprepitant, reference compound]	<	2.5
COc1ccccc1CN[C@H]1CCCN[C@H]1c1ccccc1 [CP-99994, reference compound]	>	16
Cc1nnsc1C(=O)N1CCC(N2CCN([C@H]3CCN(C(=O)c4cc(C(F)(F)F)cc(C(F)(F)F)c4)[C@H](Cc4ccccc4)C3)CC2)CC1	=	1.3
O=C(c1ccccc1)N1CCC(N2CCN(C3CCN(C(=O)c4cc(C(F)(F)F)cc(C(F)(F)F)c4)C(Cc4ccccc4)C3)CC2)CC1 (centres unmarked)	=	2.3
COc1ccc(-n2cnnn2)cc1CN[C@H]1CCCN[C@H]1c1ccccc1 [GR-203040, reference compound]	=	3.1

====

IC50: recorded values
Target: cloned human h-NK2 receptors expressed in Sf9 cells (Homo sapiens, UniProt P21452)
Construct: expressed in transfected cells; host or cells: Sf9 cells
Sequence (P21452 1-398): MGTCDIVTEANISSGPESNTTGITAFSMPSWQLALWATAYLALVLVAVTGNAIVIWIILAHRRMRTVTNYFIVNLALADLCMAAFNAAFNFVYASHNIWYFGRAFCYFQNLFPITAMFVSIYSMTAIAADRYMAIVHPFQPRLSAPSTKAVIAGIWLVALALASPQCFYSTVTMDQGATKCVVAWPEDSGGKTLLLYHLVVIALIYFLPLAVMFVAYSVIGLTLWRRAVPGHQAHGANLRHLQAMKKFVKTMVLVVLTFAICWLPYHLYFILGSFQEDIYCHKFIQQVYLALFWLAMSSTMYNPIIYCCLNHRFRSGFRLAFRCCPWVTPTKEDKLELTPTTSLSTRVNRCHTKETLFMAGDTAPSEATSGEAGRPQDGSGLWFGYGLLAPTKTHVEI
Test: Binding experiment for h-NK2 receptors ([3H]-SR-48968 displacement)
Conditions: [3H]-SR-48968, Sf9 cells; read-out: h-NK2 pIC50 (converted)
propertyMeasured: IC50 (nM)

compound	propertyMeasured	unitAbbrev	reported
Cc1nnsc1C(=O)N1CCC(N2CCN([C@H]3CCN(C(=O)c4cc(C(F)(F)F)cc(C(F)(F)F)c4)[C@H](Cc4ccccc4)C3)CC2)CC1 [Compound 143]	IC50	nM	794
O=C(c1ccsc1)N1CCC(N2CCN(C3CCN(C(=O)c4cc(C(F)(F)F)cc(C(F)(F)F)c4)C(Cc4ccccc4)C3)CC2)CC1 (centres unmarked) [Compound 5]	IC50	nM	794
O=C(c1cc(C(F)(F)F)cc(C(F)(F)F)c1)N1CC[C@H](N2CCN(C3CCN(c4ncccn4)CC3)CC2)C[C@H]1Cc1ccccc1 [Compound 16]	IC50	nM	501
N#Cc1cccc(C(=O)N2CCC(N3CCN([C@H]4CCN(C(=O)c5cc(C(F)(F)F)cc(C(F)(F)F)c5)[C@H](Cc5ccccc5)C4)CC3)CC2)c1 [Compound 39]	IC50	nM	1000
O=C(c1ccccc1O)N1CCC(N2CCN([C@H]3CCN(C(=O)c4cc(C(F)(F)F)cc(C(F)(F)F)c4)[C@H](Cc4ccccc4)C3)CC2)CC1 [Compound 36]	IC50	nM	794
COc1ccc(C)cc1S(=O)(=O)N1CCC(N2CCN(C3CCN(C(=O)c4cc(C(F)(F)F)cc(C(F)(F)F)c4)C(Cc4ccccc4)C3)CC2)CC1 (centres unmarked) [Compound 119]	IC50	nM	1000
O=C(c1cc(C(F)(F)F)cc(C(F)(F)F)c1)N1CCC(N2CCN(C3CCNCC3)CC2)CC1Cc1ccccc1 (centres unmarked) [Compound 2]	IC50	nM	1580
Cc1nnsc1C(=O)N1CCC(N2CCN([C@@H]3CCN(C(=O)c4cc(C(F)(F)F)cc(C(F)(F)F)c4)[C@@H](Cc4ccccc4)C3)CC2)CC1 [Compound 141]	IC50	nM	3980
Cc1cccc(C)c1NC(=O)CN1CCC(N2CCN([C@H]3CCN(C(=O)c4cc(C(F)(F)F)cc(C(F)(F)F)c4)[C@H](Cc4ccccc4)C3)CC2)CC1 [Compound 97]	IC50	nM	501
Cc1ccc(O)c(C(=O)N2CCC(N3CCN([C@H]4CCN(C(=O)c5cc(C(F)(F)F)cc(C(F)(F)F)c5)[C@H](Cc5ccccc5)C4)CC3)CC2)c1 [Compound 56]	IC50	nM	501
Cc1oncc1C(=O)N1CCC(N2CCN(C3CCN(C(=O)c4cc(C(F)(F)F)cc(C(F)(F)F)c4)C(Cc4ccccc4)C3)CC2)CC1 (centres unmarked) [Compound 4]	IC50	nM	6310
O=C(c1snnc1CO)N1CCC(N2CCN(C3CCN(C(=O)c4cc(C(F)(F)F)cc(C(F)(F)F)c4)C(Cc4ccccc4)C3)CC2)CC1 (centres unmarked) [Compound 144]	IC50	nM	1260
Cc1nnsc1C(=O)N1CCC(N2CCN([C@H]3CCN(C(=O)c4cc(C(F)(F)F)cc(C(F)(F)F)c4)[C@H](Cc4ccccc4)C3)CC2)CC1 [Compound 142]	IC50	nM	631
CC(C)(C)OC(=O)N1Cc2ccccc2C[C@H]1C(=O)N1CCC(N2CCN([C@H]3CCN(C(=O)c4cc(C(F)(F)F)cc(C(F)(F)F)c4)[C@H](Cc4ccccc4)C3)CC2)CC1 [Compound 90]	IC50	nM	316
Cc1nnsc1C(=O)N1CCC(N2CCN([C@H]3CCN(C(=O)c4cc(C(F)(F)F)cc(C(F)(F)F)c4)[C@H](Cc4ccccc4)C3)CC2)CC1 [Compound 78]	IC50	nM	398
COCC(=O)N1CCC(N2CCN([C@H]3CCN(C(=O)c4cc(C(F)(F)F)cc(C(F)(F)F)c4)[C@H](Cc4ccccc4)C3)CC2)CC1 [Compound 104]	IC50	nM	1580
Cc1nnsc1C(=O)N1CCC(N2CCN([C@H]3CCN(C(=O)c4cc(C(F)(F)F)cc(C(F)(F)F)c4)[C@H](Cc4ccccc4)C3)CC2)CC1 [Compound 77]	IC50	nM	794

====

Molecular target: cloned human h-NK3 receptors expressed in CHO cells (Homo sapiens)
Construct: expressed in transfected cells; host or cells: CHO cells
Sequence (P29371 whole entry): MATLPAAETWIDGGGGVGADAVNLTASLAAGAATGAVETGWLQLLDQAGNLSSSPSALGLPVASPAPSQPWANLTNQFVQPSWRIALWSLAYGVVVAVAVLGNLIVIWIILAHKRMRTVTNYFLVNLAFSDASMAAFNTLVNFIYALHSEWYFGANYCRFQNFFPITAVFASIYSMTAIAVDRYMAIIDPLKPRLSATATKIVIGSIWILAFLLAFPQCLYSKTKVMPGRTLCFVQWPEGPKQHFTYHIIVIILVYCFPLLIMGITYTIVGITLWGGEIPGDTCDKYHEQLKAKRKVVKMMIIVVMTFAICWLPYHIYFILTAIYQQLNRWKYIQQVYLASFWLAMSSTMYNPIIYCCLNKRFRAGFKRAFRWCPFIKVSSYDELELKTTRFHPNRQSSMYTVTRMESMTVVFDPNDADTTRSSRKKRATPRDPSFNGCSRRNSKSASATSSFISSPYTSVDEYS
Assay: Binding experiment for h-NK3 receptors ([3H]-SR-142801 displacement)
Conditions: [3H]-SR-142801, CHO cells; read-out: h-NK3 pIC50 (converted)
So basically, if IC50 comes in under 800 nM it's true (1), and if it's 800 nM or more it's false (0).

compound	class
Cc1cc(C)cc(C(=O)N2CCC(N3CCN(C4CCN(C(=O)c5cc(C(F)(F)F)cc(C(F)(F)F)c5)C(Cc5ccccc5)C4)CC3)CC2Cc2ccccc2)c1 (single isomer, unassigned) [Compound 11]	true (1)
O=C(c1ccsc1)N1CCC(N2CCN(C3CCN(C(=O)c4cc(C(F)(F)F)cc(C(F)(F)F)c4)C(Cc4ccccc4)C3)CC2)CC1 (centres unmarked) [Compound 5]	true (1)
N#Cc1cccc(C(=O)N2CCC(N3CCN([C@H]4CCN(C(=O)c5cc(C(F)(F)F)cc(C(F)(F)F)c5)[C@H](Cc5ccccc5)C4)CC3)CC2)c1 [Compound 39]	false (0)
Cc1cccc(C(=O)N2CCC(N3CCN([C@H]4CCN(C(=O)c5cc(C(F)(F)F)cc(C(F)(F)F)c5)[C@H](Cc5ccccc5)C4)CC3)CC2)c1 [Compound 37]	true (1)
Cc1oncc1C(=O)N1CCC(N2CCN(C3CCN(C(=O)c4cc(C(F)(F)F)cc(C(F)(F)F)c4)C(Cc4ccccc4)C3)CC2)CC1 (centres unmarked) [Compound 4]	true (1)
COCC(=O)N1CCC(N2CCN([C@H]3CCN(C(=O)c4cc(C(F)(F)F)cc(C(F)(F)F)c4)[C@H](Cc4ccccc4)C3)CC2)CC1 [Compound 104]	false (0)
NC(Cc1ccc(O)cc1)C(=O)N1CCC(N2CCN(C3CCN(C(=O)c4cc(C(F)(F)F)cc(C(F)(F)F)c4)C(Cc4ccccc4)C3)CC2)CC1 (centres unmarked) [Compound 13]	false (0)
COc1cc(CC(=O)N2CCC(N3CCN([C@H]4CCN(C(=O)c5cc(C(F)(F)F)cc(C(F)(F)F)c5)[C@H](Cc5ccccc5)C4)CC3)CC2)cc(OC)c1OC [Compound 106]	true (1)
O=C(c1cc(F)cc(F)c1)N1CCC(N2CCN([C@H]3CCN(C(=O)c4cc(C(F)(F)F)cc(C(F)(F)F)c4)[C@H](Cc4ccccc4)C3)CC2)CC1 [Compound 51]	true (1)

====

IC50: recorded values
Biological target: cloned human h-NK1 receptors expressed in CHO cells (Homo sapiens, UniProt P25103)
Construct: expressed in transfected cells; host or cells: CHO cells
Sequence (P25103 whole entry): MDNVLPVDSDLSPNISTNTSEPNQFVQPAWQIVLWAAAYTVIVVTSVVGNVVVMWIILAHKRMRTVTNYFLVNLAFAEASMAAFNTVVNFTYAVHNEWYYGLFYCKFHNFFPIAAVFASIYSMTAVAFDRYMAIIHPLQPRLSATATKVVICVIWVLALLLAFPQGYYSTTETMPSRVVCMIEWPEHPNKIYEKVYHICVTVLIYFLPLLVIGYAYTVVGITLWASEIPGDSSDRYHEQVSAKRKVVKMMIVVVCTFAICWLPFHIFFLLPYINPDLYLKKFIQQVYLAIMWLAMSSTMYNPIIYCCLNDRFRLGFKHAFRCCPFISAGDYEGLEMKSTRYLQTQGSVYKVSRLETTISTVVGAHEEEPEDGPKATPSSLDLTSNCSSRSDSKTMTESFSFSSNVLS
Assay: Binding experiment for h-NK1 receptors ([3H]-Substance P displacement)
Settings: read-out: h-NK1 pIC50 (converted)

compound	unitAbbrev	IC50
O=C(c1cc(F)c(F)cc1F)N1CCC(N2CCN([C@H]3CCN(C(=O)c4cc(C(F)(F)F)cc(C(F)(F)F)c4)[C@H](Cc4ccccc4)C3)CC2)CC1 [Compound 62]	nM	0.631
O=C(C(c1ccccc1)N1CCOCC1)N1CCC(N2CCN([C@H]3CCN(C(=O)c4cc(C(F)(F)F)cc(C(F)(F)F)c4)[C@H](Cc4ccccc4)C3)CC2)CC1 (stereo partly drawn) [Compound 116]	nM	2.51
COCC(=O)N1CCC(N2CCN([C@H]3CCN(C(=O)c4cc(C(F)(F)F)cc(C(F)(F)F)c4)[C@H](Cc4ccccc4)C3)CC2)CC1 [Compound 104]	nM	0.631
Cc1cccc(C(=O)N2CCC(N3CCN([C@H]4CCN(C(=O)c5cc(C(F)(F)F)cc(C(F)(F)F)c5)[C@H](Cc5ccccc5)C4)CC3)CC2)c1 [Compound 37]	nM	3.98
Cc1nnsc1C(=O)N1CCC(N2CCN([C@H]3CCN(C(=O)c4cc(C(F)(F)F)cc(C(F)(F)F)c4)[C@H](Cc4ccccc4)C3)CC2)CC1 [Compound 78]	nM	0.794
O=C(c1ccsc1)N1CCC(N2CCN(C3CCN(C(=O)c4cc(C(F)(F)F)cc(C(F)(F)F)c4)C(Cc4ccccc4)C3)CC2)CC1 (stereo not drawn) [Compound 5]	nM	0.1
NC(Cc1ccc(O)cc1)C(=O)N1CCC(N2CCN(C3CCN(C(=O)c4cc(C(F)(F)F)cc(C(F)(F)F)c4)C(Cc4ccccc4)C3)CC2)CC1 (stereo not drawn) [Compound 13]	nM	1.26
O=C(c1cccc(N2CCCC2)c1)N1CCC(N2CCN([C@H]3CCN(C(=O)c4cc(C(F)(F)F)cc(C(F)(F)F)c4)[C@H](Cc4ccccc4)C3)CC2)CC1 [Compound 42]	nM	2.51
Cn1cccc1CN1CCC(N2CCN(C3CCN(C(=O)c4cc(C(F)(F)F)cc(C(F)(F)F)c4)C(Cc4ccccc4)C3)CC2)CC1 (stereo not drawn) [Compound 9]	nM	1.26
O=C(c1cc(C(F)(F)F)cc(C(F)(F)F)c1)N1CCC(N2CCN(C3CCN(C(=O)n4ccnc4)CC3)CC2)CC1Cc1ccccc1 (stereo not drawn) [Compound 12]	nM	0.794
COc1cc(C(=O)N2CCC(N3CCN([C@H]4CCN(C(=O)c5cc(C(F)(F)F)cc(C(F)(F)F)c5)[C@H](Cc5ccccc5)C4)CC3)CC2)cc(OC)c1OC [Compound 65]	nM	3.98
O=C(c1cc(C(F)(F)F)cc(C(F)(F)F)c1)N1CC[C@H](N2CCN(C3CCN(C(=O)C4(c5ccccc5)CC4)CC3)CC2)C[C@H]1Cc1ccccc1 [Compound 108]	nM	1.58
